# assay.protocol: Rodent Feeding Model: Measurement of Food Intake in Food-Deprived Rats
# Format: in vivo, Male Long-Evans rats
# condition.parameters: 30 mg/kg i.p.; N = 8; 2-6 hrs; vs vehicle; negative = reduction

compound: O=S(=O)(NC[C@H]1CC[C@H](CN[C@H]2CCc3cc(O)ccc3[C@H]2Cc2cccnc2)CC1)c1ccccc1F (relative stereo)
Food Consumption (% chg.) 2-6 hrs: -11.9%

compound: O=S(=O)(NC[C@H]1CC[C@H](CNC2CCc3cc(F)ccc3C2Cc2cccnc2)CC1)c1ccccc1F (relative stereo)
Food Consumption (% chg.) 2-6 hrs: -28.6%

compound: COc1ccc2c(c1)CCC(NC[C@H]1CC[C@H](CNS(=O)(=O)c3ccccc3F)CC1)C2Cc1cccnc1 (relative stereo)
Food Consumption (% chg.) 2-6 hrs: -17.8%

compound: COc1ccc2c(c1)CC[C@H](NC[C@H]1CC[C@H](CNS(=O)(=O)c3ccc(OC)c(OC)c3)CC1)[C@@H]2Cc1ccccc1 (relative stereo)
Food Consumption (% chg.) 2-6 hrs: -45.6%
